Values from ChEMBL document CHEMBL2163236

Below: a set of entries, each annotated with reported Ki.
systemName: Cannabinoid receptor 2 (Rattus norvegicus)
Sequence (Q9QZN9 whole entry): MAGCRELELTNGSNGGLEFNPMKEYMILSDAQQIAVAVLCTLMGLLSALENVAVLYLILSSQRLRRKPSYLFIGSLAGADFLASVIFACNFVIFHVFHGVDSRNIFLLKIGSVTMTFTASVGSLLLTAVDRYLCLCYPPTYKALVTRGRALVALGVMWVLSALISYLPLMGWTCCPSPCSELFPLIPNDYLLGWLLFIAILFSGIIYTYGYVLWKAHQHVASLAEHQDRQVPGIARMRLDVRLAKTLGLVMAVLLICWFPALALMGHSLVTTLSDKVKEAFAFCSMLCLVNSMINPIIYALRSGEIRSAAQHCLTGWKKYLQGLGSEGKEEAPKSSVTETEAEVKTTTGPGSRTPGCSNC
Lab book: enter the figure in nM, no units written.

Some molecules with known Ki results, for comparison:
{"columns": ["molecule", "valueUnit", "Ki"],
 "data": [
  ["CCCC1COc2cccc3c(=O)c(C(=O)NC4CCCCC4)cn1c23 (racemic)", "nM", 1.84],
  ["CC[C@H]1COc2cccc3c(=O)c(C(=O)NC4CCCCCC4)cn1c23", "nM", 203],
  ["CCC1COc2c(N3CCCC3)ccc3c(=O)c(C(=O)NC45CC6CC(CC(C6)C4)C5)cn1c23 (racemic)", "nM", 10.5],
  ["CCC1COc2c(F)c(F)cc3c(=O)c(C(=O)NC45CC6CC(CC(C6)C4)C5)cn1c23 (racemic)", "nM", 37],
  ["CC(C)[C@@H]1COc2cccc3c(=O)c(C(=O)NC45CC6CC(CC(C6)C4)C5)cn1c23", "nM", 1.75]
]}

Incoming: Entry CCCC1COc2cccc3c(=O)c(C(=O)NC45CC6CC(CC(C6)C4)C5)cn1c23 (racemic) : reported Ki = ?
Outgoing: 2.73

Incoming: # query: Ki of entry O=C(NC1CCCCC1)c1cn2c3c(cccc3c1=O)OCC2c1ccccc1 (racemic)
Outgoing: 19.3

Incoming: Can you look up the measured Ki of "CC(C)[C@H]1COc2cccc3c(=O)c(C(=O)NC45CC6CC(CC(C6)C4)C5)cn1c23" for me?
Outgoing: 19.3

Incoming: Which Ki value is on record for Cc1ccc(C2COc3cccc4c(=O)c(C(=O)NC5CCCCC5)cn2c34)cc1 (racemic) ?
Outgoing: 547

Incoming: Request the reported Ki associated with CCC1COc2c(N3CCN(C)CC3)ccc3c(=O)c(C(=O)NC45CC6CC(CC(C6)C4)C5)cn1c23 (racemic)
Outgoing: 61

Incoming: Would you kindly share the measured Ki for CCC1COc2cccc3c(=O)c(C(=O)NC4CCCCCC4)cn1c23 (racemic) ?
Outgoing: 11.4

Incoming: Given the entry "O=C(NC12CC3CC(CC(C3)C1)C2)c1cn2c3c(cccc3c1=O)OC[C@H]2Cc1ccccc1" , report its measured Ki.
Outgoing: 4.65

Incoming: Can you share its Ki? I mean this molecule: CCC1COc2cccc3c(=O)c(C(=O)NC(C)CCC(C)C)cn1c23 (racemic)
Outgoing: 196
